Values were extracted from patent US20250352659A1.

# experimental_target: T1, B7H3 (human, UniProt Q5ZPR3 29-534)
# T1 sequence (looked up): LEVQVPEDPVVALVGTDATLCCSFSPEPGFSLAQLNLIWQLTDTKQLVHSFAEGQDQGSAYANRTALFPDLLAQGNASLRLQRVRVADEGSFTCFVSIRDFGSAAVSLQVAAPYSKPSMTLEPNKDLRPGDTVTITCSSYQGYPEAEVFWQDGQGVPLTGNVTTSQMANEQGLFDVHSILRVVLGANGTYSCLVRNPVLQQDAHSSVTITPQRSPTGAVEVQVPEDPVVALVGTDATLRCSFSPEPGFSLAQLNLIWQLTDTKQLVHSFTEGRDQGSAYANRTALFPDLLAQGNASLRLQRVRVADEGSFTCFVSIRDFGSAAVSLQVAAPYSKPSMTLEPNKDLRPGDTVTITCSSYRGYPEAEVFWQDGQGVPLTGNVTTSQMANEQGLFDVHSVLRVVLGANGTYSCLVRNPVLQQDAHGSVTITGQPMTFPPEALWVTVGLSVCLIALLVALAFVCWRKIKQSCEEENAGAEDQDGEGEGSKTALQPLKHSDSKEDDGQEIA
# protocol_summary: cell-based or functional assay
# key: entry, value: EC50 (nM), ADC direct killing, NCI-H1650 (High), 3D
Kindly answer with a numeric value in nM, unit omitted.

ADC4-10 (antibody, human IgG1, kappa, V domains shown, conjugator-linker-payload on cysteine thiols after TCEP reduction (DAR8), maleimide hydrolysed; residues not numbered; structure given only as a drawing) VH: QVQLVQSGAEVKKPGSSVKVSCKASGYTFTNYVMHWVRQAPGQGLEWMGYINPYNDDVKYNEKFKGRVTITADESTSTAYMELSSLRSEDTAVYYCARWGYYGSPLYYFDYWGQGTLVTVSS VL: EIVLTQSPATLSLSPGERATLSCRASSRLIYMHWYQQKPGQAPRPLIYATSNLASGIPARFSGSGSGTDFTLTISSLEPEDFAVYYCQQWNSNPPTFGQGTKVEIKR    1.7

Qu. Please look up its EC50 (nM), ADC direct killing, NCI-H1650 (High), 3D: ADC4-8 (antibody, human IgG1, kappa, V domains shown, conjugator-linker-payload on cysteine thiols after TCEP reduction (DAR8), maleimide hydrolysed; residues not numbered; structure given only as a drawing) VH: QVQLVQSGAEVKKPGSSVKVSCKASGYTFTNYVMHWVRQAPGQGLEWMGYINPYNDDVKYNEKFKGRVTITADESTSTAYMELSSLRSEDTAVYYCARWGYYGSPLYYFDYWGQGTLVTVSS VL: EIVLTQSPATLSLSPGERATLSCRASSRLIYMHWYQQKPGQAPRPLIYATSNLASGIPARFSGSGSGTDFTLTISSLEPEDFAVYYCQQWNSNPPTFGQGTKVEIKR
Ans. 2.9

Qu. Please look up its EC50 (nM), ADC direct killing, NCI-H1650 (High), 3D: ADC4-9 (antibody, human IgG1, kappa, V domains shown, conjugator-linker-payload on cysteine thiols after TCEP reduction (DAR8), maleimide hydrolysed; residues not numbered; structure given only as a drawing) VH: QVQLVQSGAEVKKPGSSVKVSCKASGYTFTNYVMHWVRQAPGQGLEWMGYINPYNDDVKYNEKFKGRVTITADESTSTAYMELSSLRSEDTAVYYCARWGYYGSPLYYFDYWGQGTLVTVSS VL: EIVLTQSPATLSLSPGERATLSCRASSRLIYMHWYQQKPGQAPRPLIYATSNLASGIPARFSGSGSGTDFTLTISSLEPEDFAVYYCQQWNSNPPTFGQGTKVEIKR
Ans. 2.8

Qu. Please look up its EC50 (nM), ADC direct killing, NCI-H1650 (High), 3D: ADC4-B (antibody, human IgG1, kappa, V domains shown, conjugator-linker-payload on cysteine thiols after TCEP reduction (DAR8); residues not numbered; structure given only as a drawing) VH: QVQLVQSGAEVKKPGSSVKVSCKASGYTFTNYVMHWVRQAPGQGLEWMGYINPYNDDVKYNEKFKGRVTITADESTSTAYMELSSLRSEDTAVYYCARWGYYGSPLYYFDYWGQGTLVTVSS VL: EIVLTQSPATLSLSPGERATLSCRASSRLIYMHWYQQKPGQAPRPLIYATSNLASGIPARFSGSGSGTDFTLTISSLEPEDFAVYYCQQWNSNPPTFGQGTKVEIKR
Ans. 3.9
